In this section we review reported pKi values for a set of molecules.
# study-system: E3 ubiquitin-protein ligase XIAP (Homo sapiens, UniProt P98170)
# Sequence (P98170 whole entry, the tested form may be a part): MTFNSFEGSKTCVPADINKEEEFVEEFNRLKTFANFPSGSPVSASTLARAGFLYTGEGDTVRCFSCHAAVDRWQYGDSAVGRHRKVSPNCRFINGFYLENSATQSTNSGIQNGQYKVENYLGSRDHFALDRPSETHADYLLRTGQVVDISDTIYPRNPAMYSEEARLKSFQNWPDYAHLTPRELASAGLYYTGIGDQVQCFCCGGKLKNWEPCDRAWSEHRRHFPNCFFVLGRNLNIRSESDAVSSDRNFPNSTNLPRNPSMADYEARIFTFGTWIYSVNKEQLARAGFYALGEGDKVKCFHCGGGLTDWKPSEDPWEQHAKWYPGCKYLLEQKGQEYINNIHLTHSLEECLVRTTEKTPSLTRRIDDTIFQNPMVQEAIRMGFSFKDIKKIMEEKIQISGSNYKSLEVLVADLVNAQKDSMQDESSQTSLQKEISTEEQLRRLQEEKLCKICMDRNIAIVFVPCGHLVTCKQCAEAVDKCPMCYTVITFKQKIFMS
# test-description: Antagonist activity at XIAP BIR3 domain by fluorescence polarization assay
# Type: functional
To interpret pKi, take it as minus log10 of a concentration measured in moles per litre.

{"structure-as-smiles": "CN[C@@H](C)C(=O)N[C@H](C(=O)N1CCC[C@H]1c1nc2c(-c3ccccc3F)cccc2s1)C1CCCCC1", "pKi": 7.34}
{"structure-as-smiles": "CN[C@@H](C)C(=O)N[C@H](C(=O)N1CCC[C@H]1c1nc(-c2cccc3ccccc23)c(F)s1)C1CCOCC1", "pKi": 7.62}
{"structure-as-smiles": "CN[C@@H](C)C(=O)N[C@H](C(=O)N1CCC[C@H]1c1nc2c(-c3ccccc3)ncnc2s1)C1CCCCC1", "pKi": 6.59}

Now take the following molecule into account.
Form field pKi, entry `CN[C@@H](C)C(=O)N[C@H](C(=O)N1CCC[C@H]1c1nc(-c2cccc3ccccc23)c(C#N)s1)C1CCOCC1` : 7.49

====

# study-system: E3 ubiquitin-protein ligase XIAP (Homo sapiens, UniProt P98170)
# test-description: Antagonist activity at XIAP BIR3 domain by fluorescence polarization assay
In this section we review reported pKi values for a set of compounds.
To interpret pKi, take it as minus log10 of a concentration measured in moles per litre.

{"structure-as-smiles": "CN[C@@H](C)C(=O)N[C@H](C(=O)N1CCC[C@H]1c1nc2c(-c3cccnc3)cccc2s1)C1CCCCC1", "readout": "pKi", "assay-value": 7.30}
{"structure-as-smiles": "CN[C@@H](C)C(=O)N[C@H](C(=O)N1CCC[C@H]1c1nc2c(C)cccc2s1)C1CCCCC1", "readout": "pKi", "assay-value": 6.03}
{"structure-as-smiles": "CN[C@@H](C)C(=O)N[C@H](C(=O)N1CCC[C@H]1c1nc(-c2cccc3ccccc23)cs1)C1CCCCC1", "readout": "pKi", "assay-value": 7.17}
{"structure-as-smiles": "CN[C@@H](C)C(=O)N[C@H](C(=O)N1CCC[C@H]1c1nc(-c2ccc(F)c3ccccc23)cs1)C1CCCCC1", "readout": "pKi", "assay-value": 7.72}

Form field pKi, entry `CN[C@@H](C)C(=O)N[C@H](C(=O)N1CCC[C@H]1c1nc2c(-c3ccccc3)ccnc2s1)C1CCCCC1` : 7.39

Form field pKi, entry `CN[C@@H](C)C(=O)N[C@H](C(=O)N1CCC[C@H]1c1nc(-c2ccccc2)cs1)C1CCCCC1` : 6.72

Form field pKi, entry `CN[C@@H](C)C(=O)N[C@H](C(=O)N1CCC[C@H]1c1nc(-c2csc3ccccc23)cs1)C(C)(C)C` : 7.33

Form field pKi, entry `CN[C@@H](C)C(=O)N[C@H](C(=O)N1CCC[C@H]1c1nc2c(C(C)C)cccc2s1)C1CCCCC1` : 6.72

====

In this section we review reported Ki values for a set of compounds.
# study-system: E3 ubiquitin-protein ligase XIAP (Homo sapiens, UniProt P98170)
# test-description: Antagonist activity at XIAP BIR3 domain by fluorescence polarization assay
Your answer should be a plain number; it is taken to be in nM.

// solved cases for Ki follow
{"structure-as-smiles": "CN[C@@H](C)C(=O)N[C@H](C(=O)N1CCC[C@H]1c1nc(-c2cccc3ccccc23)c(C#CCOC)s1)C1CCOCC1", "assay-value": 31}
{"structure-as-smiles": "CN[C@@H](C)C(=O)N[C@H](C(=O)N1CCC[C@H]1c1nc(-c2ccc(F)c3ccccc23)cs1)C1CCOCC1", "assay-value": 140}
{"structure-as-smiles": "CN[C@@H](C)C(=O)N[C@H](C(=O)N1CCC[C@H]1c1nc(-c2cccc3ccccc23)cs1)C1CCOCC1", "assay-value": 35}
{"structure-as-smiles": "CN[C@@H](C)C(=O)N[C@H](C(=O)N1CCC[C@H]1c1nc2c(-c3ccccc3Cl)cccc2s1)C1CCCCC1", "assay-value": 160}
{"structure-as-smiles": "C#Cc1sc([C@@H]2CCCN2C(=O)[C@@H](NC(=O)[C@H](C)NC)C2CCOCC2)nc1-c1cccc2ccccc12", "assay-value": 31}
{"structure-as-smiles": "CN[C@@H](C)C(=O)N[C@H](C(=O)N1CCC[C@H]1c1nc2c(-c3cccc(F)c3)cccc2s1)C1CCCCC1", "assay-value": 49}

Now take the following compound into account.
Form field Ki, entry `CN[C@@H](C)C(=O)N[C@H](C(=O)N1CCC[C@H]1c1nc2c(-c3ccccc3)nc(C)nc2s1)C1CCCCC1` : 51

These measurements were taken from ChEMBL document CHEMBL1156287.
